Tested on: SR leukemia
Experimental details: NCI tumour cell line growth inhibition, 48 h
GI50 overview

Reference set, count: 5
COc1ccc(/C=C2/CCc3cc4ccc(OC)cc4[o+]c32)c(O)c1 | 3.04 µM
Cn1c2ccccc2c2c(=O)c3ccccc3[nH]c21 | > 100 µM
O=S1(=O)NCCCN1CCNc1nccc(-c2c(-c3cccc(O)c3)nc3sccn23)n1 | 5.55 µM
CCSc1nc(N)c2cn[nH]c2n1 | 7.63 µM
COc1cc2c(cc1-c1c(C)noc1C)cc(C)c(=O)n2Cc1ccccn1 | 0.709 µM

# context switch: different compound, same GI50
What value of measured GI50 is listed for O=C(/C=C/c1ccccc1)CC(c1ccccc1)N1CCOCC1 (stereo unspecified) ?
2.71 µM

---

GI50 overview
Tested on: SK-MEL-28 melanoma
Experimental details: NCI tumour cell line growth inhibition, 48 h

What value of measured GI50 is listed for C[C@H](Cn1ncnn1)Nc1ncc2cc(Oc3ccc(F)cc3F)c(=O)n(C)c2n1 ?
> 25 µM

Next compound up: Cn1c2ccccc2c2c(=O)c3ccccc3[nH]c21
> 100 µM

Next compound up: OB1OCc2cc(/C=C/c3cccc(C(F)(F)F)c3)ccc21
18.8 µM

Next compound up: CCSc1nc(N)c2cn[nH]c2n1
33.2 µM

Next compound up: COc1ccc2cc(-c3ccc(-c4ccc(C(=N)N)s4)s3)ccc2c1
2.5 µM

Next compound up: COc1ccc(CC(C)C(C)Cc2ccc(OC)c(OC)c2)cc1OC (stereo unspecified)
> 1400 µM

---

Test system: RXF-631 renal
Experimental details: NCI tumour cell line growth inhibition, 48 h
TGI overview

Reference set, count: 5
O=C/C(=C(/Cl)c1ccc(O)cc1)c1ccccc1 | > 31.6 µM
CC(=O)NNc1nc(C)c(C(=O)NNC(=O)C(=O)Nc2nc3ccc([N+](=O)[O-])cc3s2)s1 | > 100 µM
CC1(Cc2ccccc2)NC(=S)NC1=O (stereo unspecified) | > 100 µM
Cc1cc(=O)c2c([nH]1)NS(=O)(=O)NC2=O | > 100 µM
CC(C)c1ccccc1NC(=O)/C(Cl)=C1/Sc2ccccc2NC1=O | > 100 µM

What value of measured TGI is listed for CCOC(=O)c1ccc(N[C@@H]2c3cc4c(cc3C(C3=CC(=O)C(=O)C(OC)=C3)[C@H]3C(=O)OCC32)OCO4)cc1 (stereo partly specified) ?
10 µM

---

Test system: HOP-18 NSCLC
Experimental details: NCI tumour cell line growth inhibition, 48 h
Parameter measured: TGI

What value of measured TGI is listed for CC1=C(C(=O)Nc2ccccc2C)C(/C=C/c2ccccc2)C(C(=O)Nc2ccccc2C)=C(C)N1 ?
> 100 µM

Next compound up: C#CCC(N)(CO)C(=O)O (stereo unspecified)
> 100 µM

Next compound up: COc1ccc(Nc2nc3ccccc3nc2-c2cccs2)cc1
> 100 µM

---

Test system: SK-MEL-5 melanoma
Experimental details: NCI tumour cell line growth inhibition, 48 h
Parameter measured: TGI

Reference set, count: 3
CC(=O)N[C@H](C(=O)N[C@@H](CCCNC(=N)N)C(=O)N[C@@H](CCCCN)C(=O)N[C@@H](CCCNC(=N)N)C(=O)N[C@]1(C)CCCCCC/C=C\CCC[C@@](C)(C(=O)N[C@@H](CCCNC(=N)N)C(=O)N[C@@H](CCC(=O)O)C(=O)N[C@@H](CC(C)C)C(=O)N[C@H](C(=O)N[C@@H](CCC(=O)O)C(N)=O)C(C)C)NC(=O)[C@H](CCC(N)=O)NC(=O)[C@H](CC(C)C)NC(=O)[C@H](CC(C)C)NC(=O)[C@H](CCCNC(=N)N)NC(=O)[C@H](CCCNC(=N)N)NC(=O)[C@H](CC(C)C)NC1=O)C(C)C | 2.62 µM
COc1ccc2cc(-c3ccc(-c4ccc(C(=N)N)s4)s3)ccc2c1 | 30.2 µM
COc1ccc2cc3c4cc5c(cc4cc[n+]3cc2c1OC)OCO5 | 14.1 µM

Write down the reported TGI of C=CCO/N=C/c1cc(NC(=S)c2ccoc2C)ccc1Cl , test system: SK-MEL-5 melanoma.
27.6 µM

Next compound up: Cl[Si]1(Cl)Oc2ccccc2O[Si](Cl)(Cl)Oc2ccccc2O1
27 µM

Next compound up: CCC(=C(c1ccc(OCCCN(C)C)cc1)c1ccc(OCCCN(C)C)cc1)c1ccc(Cl)cc1
4.37 µM

Next compound up: C1=CC2=CC=CC3c4nc5ccc6ccccc6c5nc4C(=C1)C23 (stereo unspecified)
> 100 µM

Next compound up: COc1ccccc1-c1cc(=O)c2ccc(C)nc2[nH]1
> 100 µM

Next compound up: Cc1ccccc1Nc1nc2c(s1)C(=O)c1ccccc1C2=O
7.12 µM

Next compound up: COc1cc(NS(C)(=O)=O)ccc1N1Cc2cnc3ccc4[nH]c(C)cc1c4c23
> 100 µM

Next compound up: COc1ccccc1/C=C/C(=O)/C=C/c1ccccc1O
2.78 µM

Next compound up: N#CC(C#N)=CNC(=S)c1ccncc1
> 100 µM

Next compound up: CC(=O)[CH-]C(C)=O.[CH2-]C.[CH2-]C.[Tl+3]
> 100 µM

Next compound up: CO[C@]12CC(=O)C3(C(C[C@H]4CC5CC=C6C[C@@H](OC(C)=O)CC[C@]6(OC(C)=O)C5C[C@@]43C)C1)C1C[C@H]3[C@@H]4CC=C5C[C@@H](OC(C)=O)CC[C@]5(OC(C)=O)[C@H]4CC[C@]3(C)C12 (stereo partly specified)
14.7 µM

Next compound up: COc1cccc(/C=C2\CCC(C)(CN(C)C)C2=O)c1 (stereo unspecified)
> 100 µM

Next compound up: CSc1c(C#N)c(N)n2c1C(=O)N(c1ccccc1)C2=S
> 100 µM

---

System: IGROV1 ovarian
Experimental details: NCI tumour cell line growth inhibition, 48 h
Parameter measured: TGI

Reference set, count: 5
OC(CN1CC1)C(O)CN1CC1 (stereo not given) | > 50 µg/mL
O=C(NCCN1CCOCC1)c1ccc2cc(C(=O)N3CC(CCl)c4ccc([N+](=O)[O-])cc43)[nH]c2c1 (stereo not given) | > 100 µM
O=S(=O)(CCOCc1ccc(-c2ccc3ncnc(Nc4ccc(OCc5cccc(F)c5)c(Cl)c4)c3c2)o1)c1ccccc1 | > 25 µM
O=C1C(SCCO)=C(SCCO)C(=O)c2ccccc21 | 2.78 µM
C=CC[C@]12C[C@@H](C(=O)OC)N(C(=O)OC)[C@H]1N(S(=O)(=O)c1ccccc1)c1ccccc12 | > 100 µM

# context switch: different compound, same TGI
What value of measured TGI is listed for Cl[Si]1(Cl)Oc2ccccc2O[Si](Cl)(Cl)Oc2ccccc2O1 ?
> 100 µM

---

Tested on: NCI-H226 lung
Experimental details: NCI tumour cell line growth inhibition, 48 h
Parameter measured: TGI

OC(CN1CC1)C(O)CN1CC1 (stereo unspecified) | > 50 µg/mL
C=CCn1c(=O)ccn(COCCO)c1=O | > 100 µM
CC(=O)OC1COC(n2c(=S)n(-c3ccccc3)c(=O)c3cc(Br)ccc32)C(OC(C)=O)C1OC(C)=O (stereo unspecified) | > 100 µM
CC(=O)N/N=C1\NC(=O)C[C@H]2[C@@H]3CC=C4C[C@@H](OC(C)=O)CC[C@]4(C)[C@H]3CC[C@]12C | 54.6 µM
Cc1ncc(C(=O)Nc2ccc(CN3CCN(C)CC3)c(C(F)(F)F)c2)cc1C#Cc1cnc(NC2CC2)c2ncccc12 | 6.46 µM

What value of measured TGI is listed for COc1ccc(CC(O)CN2CCOCC2)cc1 (stereo unspecified) ?
> 100 µM

Next compound up: C=C1CC2(OC1=O)C(=O)N(CCCN1C(=O)C3(CC(=C)C(=O)O3)c3ccccc31)c1ccccc12 (stereo unspecified)
6.64 µM

Next compound up: CC1(c2ccccc2)CC(c2ccccc2)=NO1 (stereo unspecified)
> 100 µM

Next compound up: NC(=O)C1(N2CCCCC2)CCN(CCCC(=O)c2ccc(F)cc2)CC1
8.81 µM

Next compound up: Cc1ccc2c(c1)Sc1ccc(N=NN(C)C)cc1N2C
> 100 µM

Next compound up: CCOC(=O)/C(=C/c1cccc(OC)c1)N(CC)CC
> 100 µM

---

Tested on: NCI-H226 lung
Experimental details: NCI tumour cell line growth inhibition, 48 h
Parameter measured: GI50

Reference set, count: 3
CC1(C)N=C(N)N=C(N)N1c1ccc(OCC(=O)Nc2ccccc2)c(Cl)c1 | > 71600 nM
Cc1cc(Nc2nc(SCc3ccc(C(=O)Nc4ccc(F)cc4N)cc3)nn3cccc23)n[nH]1 | 2700 nM
Cn1c2ccccc2c2c(=O)c3ccccc3[nH]c21 | 38800 nM

What value of measured GI50 is listed for C=C1CC2(OC1=O)C(=O)N(CCCN1C(=O)C3(CC(=C)C(=O)O3)c3ccccc31)c1ccccc12 (stereo unspecified) ?
2010 nM

Next compound up: CC(=O)[CH-]C(C)=O.[CH2-]C.[CH2-]C.[Tl+3]
> 100000 nM

Next compound up: O=c1oc(-c2ccc(O)c(O)c2)cc2cccc(O)c12
15200 nM

Next compound up: CNC(=O)c1cc2c(Oc3ccc(NC(=O)C4(C(=O)Nc5ccc(F)cc5)CC4)cc3)ccnc2cc1OC
2470 nM

Next compound up: Cn1c(/C(C#N)=C/c2ccc3ccccc3c2)cc2ccccc21
662 nM

Next compound up: C=C(CN1CCc2ccccc2C1)c1ccc(C(=O)Nc2ccccc2N)cc1
1490 nM

Next compound up: OC(CN1CC1)C(O)CN1CC1 (stereo unspecified)
> 50 µg/mL

Next compound up: CCC(=C(c1ccc(OCCCN(C)C)cc1)c1ccc(OCCCN(C)C)cc1)c1ccc(Cl)cc1
2650 nM
